test: Cytotoxicity against african green monkey Vero cells; type: cell-based; conditions: chlorocebus sabaeus
measured_metric: CC50 (µg/mL)
Could you give me the number in µg/mL? Just the number is fine.

1) CC1=NN(c2ccc(Cl)cc2)C(=O)/C1=C(/c1ccc(Cl)cc1)N1CCSCC1
4.86
2) CC1=NN(c2ccccc2)C(=O)/C1=C(/c1ccc(Cl)cc1)N1CCN(C)CC1
5.58
3) CC1=NN(c2ccccc2)C(=O)/C1=C(/c1ccc(Cl)cc1)N1CCSCC1
5.71

Input CC1=NN(c2ccc(Cl)cc2)C(=O)/C1=C(/c1ccc(Cl)cc1)N1CCN(C)CC1 . Output CC50: 5.49

src = ChEMBL document CHEMBL1153071
